target: Tyrosine-protein kinase Mer (Homo sapiens) (UniProt Q12866); details: at 0.1 µM;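 note: reported value is a mean inhibition of MER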
Sequence (Q12866 whole entry): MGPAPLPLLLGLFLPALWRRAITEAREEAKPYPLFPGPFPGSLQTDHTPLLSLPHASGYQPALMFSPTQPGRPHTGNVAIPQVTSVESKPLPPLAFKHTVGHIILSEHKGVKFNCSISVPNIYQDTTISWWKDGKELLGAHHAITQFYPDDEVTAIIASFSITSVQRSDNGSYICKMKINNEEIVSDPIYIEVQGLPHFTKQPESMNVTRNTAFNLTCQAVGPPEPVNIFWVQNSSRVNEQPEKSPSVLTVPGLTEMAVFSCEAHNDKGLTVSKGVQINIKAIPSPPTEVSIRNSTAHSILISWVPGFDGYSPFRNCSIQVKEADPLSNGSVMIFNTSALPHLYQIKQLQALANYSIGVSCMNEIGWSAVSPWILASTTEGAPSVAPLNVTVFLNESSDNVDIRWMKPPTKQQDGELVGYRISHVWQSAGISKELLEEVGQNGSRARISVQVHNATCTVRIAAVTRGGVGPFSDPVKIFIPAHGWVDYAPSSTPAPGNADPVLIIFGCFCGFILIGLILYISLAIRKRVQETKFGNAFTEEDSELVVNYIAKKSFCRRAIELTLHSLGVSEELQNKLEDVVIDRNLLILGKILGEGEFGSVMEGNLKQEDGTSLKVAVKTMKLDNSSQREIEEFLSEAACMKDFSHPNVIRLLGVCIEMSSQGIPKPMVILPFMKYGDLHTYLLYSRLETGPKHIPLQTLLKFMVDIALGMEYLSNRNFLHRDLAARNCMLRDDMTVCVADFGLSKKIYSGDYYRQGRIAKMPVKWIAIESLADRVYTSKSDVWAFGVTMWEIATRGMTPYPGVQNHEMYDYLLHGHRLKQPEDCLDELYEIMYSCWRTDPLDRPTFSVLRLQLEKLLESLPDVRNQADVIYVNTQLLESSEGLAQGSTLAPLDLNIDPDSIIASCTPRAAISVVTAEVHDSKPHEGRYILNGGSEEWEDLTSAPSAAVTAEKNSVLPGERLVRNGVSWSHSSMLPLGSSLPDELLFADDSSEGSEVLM
Exercise: for every item that follows, state its recorded inhibition.
Quick note: give the figure in %, leave out the unit.

Assign inhibition to the following record: CC(C)(CO)CNC(=O)c1ccc2c(c1)/C(=N/Nc1ccc(S(N)(=O)=O)cc1)C(=O)N2
-2.26

Assign inhibition to the following record: Cc1ccc2c(-c3ccnc(Nc4ccccc4)n3)c(-c3ccc(F)cc3)nn2n1
3.07

Assign inhibition to the following record: N#Cc1c(NC(=O)c2ccc(F)cc2)sc2c1CCCC2
-0.51

Assign inhibition to the following record: Cc1cccc2c1NC(=O)/C2=N\Nc1ccc(S(N)(=O)=O)cc1
1.25

Assign inhibition to the following record: N#Cc1c(NC(=O)CN2CCOCC2)sc2c1CCCC2
1.87

Assign inhibition to the following record: CNC(=O)c1cc(-c2ccc(F)cc2)cc(-c2ccc(S(=O)(=O)N3CCCC3)cc2)c1N
0.74

Assign inhibition to the following record: CCOc1ccc2c(-c3ccnc(Nc4cccc(C(F)(F)F)c4)n3)cnn2n1
0.97

Assign inhibition to the following record: COC(=O)Nc1nc2ccc(S(=O)(=O)c3ccc(NC(=O)Nc4cc(C(F)(F)F)ccc4F)cc3)cc2[nH]1
0.88

Assign inhibition to the following record: COC(=O)c1sc(-n2cnc3cc(OC)c(OC)cc32)cc1OCc1ccccc1C(F)(F)F
1.24

Assign inhibition to the following record: Clc1ccc(-c2nn3ncccc3c2-c2ccnc(Nc3ccccc3)n2)cc1
0.11

Assign inhibition to the following record: CCCN1CCC(c2ccc(Nc3nc(Nc4cc(F)ccc4C(N)=O)c4cc[nH]c4n3)c(OC)c2)CC1
2.18

Assign inhibition to the following record: c1ccc(COc2ccc(Nc3ncnc4ccc(-c5ccco5)cc34)cc2)cc1
1.57

Assign inhibition to the following record: CCCN(CCS(C)(=O)=O)Cc1ccc(-c2ccc3ncnc(Nc4ccc(OCc5cccc(F)c5)c(Cl)c4)c3c2)o1
4.13

Assign inhibition to the following record: O=S(=O)(CCNCc1ccc(-c2ccc3ncnc(Nc4ccc(OCc5cccc(F)c5)c(Cl)c4)c3c2)o1)c1ccccc1
3.42

Assign inhibition to the following record: Nc1nc(-c2cccc(Cl)c2)c(-c2ccc3ncccc3n2)s1
2.09

Assign inhibition to the following record: NS(=O)(=O)c1ccc(N/N=C2\C(=O)Nc3ccc4ncccc4c32)cc1
1.59

Assign inhibition to the following record: CNC(=O)c1cccc(C#Cc2cncnc2Nc2ccc(OCc3cccc(F)c3)c(Cl)c2)c1
1.54

Assign inhibition to the following record: O=C(O[C@H]1CN[C@H](C#Cc2cc3ncnc(Nc4ccc(Cc5ccccc5)cc4)c3s2)C1)N1CCOCC1
-0.63

Assign inhibition to the following record: COc1ccc2[nH]c3c4[nH]c5ccc(OC)cc5c4c4c(c3c2c1)C(=O)NC4=O
10.7

Assign inhibition to the following record: Cc1ccc(O)cc1Nc1ccnc2cc(-c3ccccn3)ccc12
1.35

Assign inhibition to the following record: COc1cccc(-n2ncc3c(N/N=C/c4ccc(F)cc4)ncnc32)c1
3.7

Assign inhibition to the following record: COc1cc2c(cc1Nc1nc(Nc3ccsc3C(N)=O)c3cc[nH]c3n1)N(C(=O)CN(C)C)CCC2(C)C
3.14

Assign inhibition to the following record: CC1=C(C(=O)Nc2cc(Cl)c3[nH]ncc3c2)C(c2ccc(C(F)(F)F)cc2)CC(=O)N1 (stereo unspecified)
1.72

Assign inhibition to the following record: NS(=O)(=O)c1ccc(Nc2ncc(-c3ccccc3)o2)cc1
2.4

Assign inhibition to the following record: CCn1c(-c2nonc2N)nc2c(C#CC(C)(C)O)nc(OC[C@H](N)c3ccccc3)cc21
5.78

Assign inhibition to the following record: COc1cc(/C=N/Nc2ncnc3[nH]ncc23)ccc1O
1.2

Assign inhibition to the following record: CNC(=O)c1cncc(/C=C/c2ccccc2Cl)c1
3.56

Assign inhibition to the following record: Nc1ncc(-c2cccc(S(N)(=O)=O)c2)c2scc(-c3ccc(F)c(Cl)c3)c12
0.36

Assign inhibition to the following record: Nc1nc(-c2ccc(F)cc2)c(-c2ccc3ncccc3n2)s1
2.57

Assign inhibition to the following record: Fc1ccc(-c2cc(-c3c[nH]nc3-c3ccccn3)ccn2)cc1
1.96

Assign inhibition to the following record: Fc1ccc(-c2nn3ccccc3c2-c2ccncc2)cc1
1.48

Assign inhibition to the following record: CN(C)CCOc1ccc(-c2nc(-c3ccncc3)c(-c3ccc4c(c3)CC/C4=N\O)[nH]2)cc1
0.89

Assign inhibition to the following record: CC(C)COC(=O)c1ccc2c(c1)/C(=C/Nc1ccc(S(N)(=O)=O)cc1)C(=O)N2
2.14

Assign inhibition to the following record: CCN1CCC(CC(=O)Nc2n[nH]c3nnc(-c4cccc(F)c4F)cc23)CC1
-1.66

Assign inhibition to the following record: COc1ccc(-c2oc3ncnc(N)c3c2-c2ccc(NC(=O)Nc3cc(C(F)(F)F)ccc3F)cc2)cc1
11.7

Assign inhibition to the following record: CCN(CC)S(=O)(=O)c1ccc(OC)c(Nc2ncc(-c3ccccc3)o2)c1
0.62

Assign inhibition to the following record: COc1ccc(-c2cc3c(N)ncnc3o2)cc1
0.56

Assign inhibition to the following record: COc1cc(N2CCN(C(C)C)CC2)ccc1Nc1nc(Nc2ccc(F)cc2C(N)=O)c2cc[nH]c2n1
4.46

Assign inhibition to the following record: CCn1cc(-c2ccnc3[nH]ccc23)c(-c2cccc(NC(=O)Nc3ccc(OCc4ccccc4)cc3)c2)n1
0.66

Assign inhibition to the following record: COc1ccc2c(-c3ccnc(Nc4cccc(OC(F)(F)F)c4)n3)cnn2n1
1.44

Assign inhibition to the following record: NC(=O)c1sc(-n2cnc3ccc(C(F)(F)F)cc32)cc1OCc1ccccc1Br
1.71
